Origin of values: PubChem BioAssay AID1159580

Assign normalized growth to each entry below.
# PROTOCOL_TEXT: chemical genetic growth profiling, strain panel (AID 1159580);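 note: tested at 20 µM; growth read once vehicle control cultures reached saturation at 30 °C; 1 = growth at the plate median or of vehicle wells; lower values mean less growth of the strain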
# EXPERIMENTAL_CONDITIONS: S. cerevisiae deletion strains, growth OD, locus YNL248C, strain rpa49, hits give low values
Hit rate of the full screen: of about 5,500 compounds, about 2,000 (36%) were called active. Roughly 18% stayed inconclusive and do not appear here. This is one part of the list.

- COMPOUND: "O=C(NC(=O)c1ccccc1Cl)Nc1ccc(OC(F)(F)F)cc1"
  OBSERVED_PROPERTY: "normalized growth"
  EXPERIMENTAL_VALUE: "1.07 (inactive)"
- COMPOUND: "CCC(C)C(=O)O[C@@H]1C[C@@]2(C)[C@H](c3ccoc3)OC(=O)CC23OC2(C)O[C@]14[C@]1(C)[C@@H](CC(=O)OC)C5(C)CC1(O)[C@](O)(C5OC(=O)C1(C)OC1C)[C@@H](OC(C)=O)[C@]34O2 (stereo partly drawn)"
  OBSERVED_PROPERTY: "normalized growth"
  EXPERIMENTAL_VALUE: "0.975 (inactive)"
- COMPOUND: "O=C(/C=C/c1ccc(O)c(O)c1)OCCc1ccccc1"
  OBSERVED_PROPERTY: "normalized growth"
  EXPERIMENTAL_VALUE: "0.769 (active)"
- COMPOUND: "COc1cc(CNC(=O)CCCC/C=C/C(C)C)ccc1O"
  OBSERVED_PROPERTY: "normalized growth"
  EXPERIMENTAL_VALUE: "0.926 (inactive)"
- COMPOUND: "C[C@@H]1CC(Cl)CC[C@H]1C(=O)OC(C)(C)C (stereo partly drawn)"
  OBSERVED_PROPERTY: "normalized growth"
  EXPERIMENTAL_VALUE: "1.01 (inactive)"
- COMPOUND: "CC[C@@H]1C=C/C=C/C[C@H](C)[C@@H](O)[C@](C)(O)C(=O)[C@H](C)[C@@H](O)[C@H](C)C(=O)[C@H](C)[C@@H](O)[C@H](C)/C=C/C(=O)O[C@H]2[C@@H](C)[C@@H](CC1)O[C@@]1(CC[C@@H](C)[C@@H](C[C@H](C)O)O1)[C@@H]2C"
  OBSERVED_PROPERTY: "normalized growth"
  EXPERIMENTAL_VALUE: "1.01 (inactive)"
- COMPOUND: "O=C(O)/C=C/c1ccc(O)c(O)c1"
  OBSERVED_PROPERTY: "normalized growth"
  EXPERIMENTAL_VALUE: "1 (inactive)"
- COMPOUND: "Nc1nc(=S)c2[nH]cnc2[nH]1"
  OBSERVED_PROPERTY: "normalized growth"
  EXPERIMENTAL_VALUE: "0.92 (inactive)"

Batch request: normalized growth per item, same order as input.
1. OCC(O)CN1CCN(c2ccccc2)CC1 (stereo not drawn)
2. C[C@]12CCC(=O)C=C1C=CC1C2CC[C@@]2(C)C1CC[C@@]2(O)CCC(=O)O (stereo partly drawn)
3. CC(=O)S[C@@H]1CC2=CC(=O)CC[C@]2(C)[C@H]2CC[C@@]3(C)[C@@H](CC[C@@]34CCC(=O)O4)C12 (stereo partly drawn)
4. COc1ccc(C2CNC(=O)C2)cc1OC1CCCC1 (stereo not drawn)

Output:
1. 0.925 (inactive)
2. 1.04 (inactive)
3. 0.97 (inactive)
4. 0.974 (inactive)

Batch request: normalized growth per item, same order as input.
1. C[C@]12CCC(=O)C=C1C=CC1C2CC[C@@]2(C)C1CC[C@@]21CCC(=O)O1 (stereo partly drawn)
2. COC(=O)C[C@H]1C2(C)CC34OC5(C)O[C@@]6([C@H](OC(C)=O)C(OC(C)=O)[C@]7(C)C(/C(=C(/O)C(C)C)C(=O)O[C@H]7c7ccoc7)[C@@]6(O5)[C@H](OC(C)=O)[C@@]3(O)C2OC(=O)C(C)C)[C@]14C (stereo partly drawn)
3. CCC[C@H](N[C@@H](C)C(=O)N1[C@H](C(=O)O)C[C@@H]2CCCC[C@@H]21)C(=O)OCC
4. O=c1cccc2ccc(O)c(O)c2c1O
5. CCOC(=O)n1ccn(C)c1=S
6. C/C=C(\C)C(=O)O[C@H]1C[C@@H](OC(C)=O)[C@@]2(C(=O)OC)CO[C@@H]3C2[C@]12CO[C@](O)(C(=O)OC)[C@H]2[C@](C)(C12O[C@@]1(C)[C@H]1C[C@@H]2OC2OC=C[C@@]21O)[C@@H]3O (stereo partly drawn)

Output:
0.912 (inactive)
0.989 (inactive)
1.01 (inactive)
0.912 (inactive)
1.04 (inactive)
0.967 (inactive)
